Test system: H358
assay_method_text: Cancer cell growth inhibition, SRB assay
Assay type: cell-based, human
Set-up: unit not given here
measurement_setup: H358; at 10 μM; SRB at Day 6; NE = no activity at 10 micromolar
experimental_endpoint: Percentage of Growth Inhibition
Enter the number alone.

Previously resolved entries follow.
CCCCCCCCc1ccc(NS(=O)(=O)NC2(CC(=O)O)CNC2)cc1.O=C(O)C(F)(F)F
0.06989
CCCCCc1ccc(S(=O)(=O)NC2(CC(=O)O)CC[N+](C)(C)C2)cc1 (stereo not shown) [Example S20, 2,2,2-trifluoroacetate]
0.2773
CCCCCCCCCCc1ccc(C(=O)NC2(CC(=O)O)CCN(C)C2)cc1 (stereo not shown) [Example S21, 2,2,2-trifluoroacetate]
0.6802

Name the recorded Percentage of Growth Inhibition of the item CCCCCc1ccc(S(=O)(=O)NC2(CC(=O)O)CNC2)cc1 [Example S25, 2,2,2-trifluoroacetate] in your answer.
0.05754
